Source: PubChem BioAssay (NCI)

Test system: NCI-H460 lung
Experiment: NCI tumour cell line growth inhibition, 48 h
Recorded TGI, one value per entry.

Report TGI, nothing else, for this compound: COC(=O)OCC1OC(N2C(=O)NC(=O)C(I)C2N=[N+]=[N-])CC1OC(=O)OC (stereo not given)
> 100 µM

Report TGI, nothing else, for this compound: CC1C(c2ccc(N(C)C)cc2)c2cc3c(cc2OC1N1CCCC1)OCO3 (stereo not given)
> 95.3 µM

----------
Test system: NCI-H226 lung
Test: NCI tumour cell line growth inhibition, 48 h; in the data active means GI50 below about 0.43 µM; inactive means the rest
Write down the outcome that applies. Available outcomes: 1 (yes) (active), 0 (no) (inactive)

Which result was noted for this compound in the test: `[Cu+2].[Cu+2].[O-]c1ccccc1C=Nc1ccccc1[O-].[O-]c1ccccc1C=Nc1ccccc1[O-]`
0 (no)

Which result was noted for this compound in the test: `C[C@]12CC[C@H](O)CC1=CC[C@@H]1[C@@H]2CC[C@]2(C)C(=O)/C(=C/c3cccc(OCCCn4ccnc4)c3)C[C@@H]12`
0 (no)

Which result was noted for this compound in the test: `O=C(NNc1nc2cc(F)ccc2n2c(CN3CCOCC3)ccc12)c1ccccc1`
0 (no)

Read the next record carefully.
Which result was noted for this compound in the test: CCN(CC)c1ccc(NC(C(=O)c2ccccc2)c2ccccc2)cc1 (stereo not drawn)
0 (no)

----------
System: HL-60(TB) leukemia
Test: NCI tumour cell line growth inhibition, 48 h
Recorded log10 TGI, one value per entry.
Values are log10 of TGI in µM.

Report log10 TGI, nothing else, for this compound: `C[C@]12CC[C@H](O)CC1=CC[C@@H]1[C@@H]2CC[C@]2(C)C(=O)/C(=C/c3cccc(OCCCn4ccnc4)c3)C[C@@H]12`
1.65

Report log10 TGI, nothing else, for this compound: `CC1(C)CCC(S(=O)(=O)c2ccc3c(c2)/C(=N\O)c2cc(S(=O)(=O)N4CCC(O)(c5cccc(C(F)(F)F)c5)CC4)ccc2-3)CC1`
-1.17

Report log10 TGI, nothing else, for this compound: `O=C1Nc2ccc(Cl)cc2/C1=C\c1c(-c2ccc(F)cc2)nc2ccccn12`
0.65

Report log10 TGI, nothing else, for this compound: CCOC(=O)C1(Cc2ccc(C)cc2)Cc2ccc(C)cc2C1=O (stereo not drawn)
1.37

New cases:
Report log10 TGI, nothing else, for this compound: `CCCOC(=O)N[C@H]1CCc2c(Br)c(OC)c(OC)c(OC)c2-c2ccc(SC)c(=O)cc21`
-1.11

----------
Recorded TGI, one value per entry.
Tested on: ACHN renal
Experiment: NCI tumour cell line growth inhibition, 48 h

Report TGI, nothing else, for this compound: COc1ccc(C2C3=C(NC(=O)C2C#N)c2ccc4ccccc4c2OCC3)cc1 (stereo not drawn)
59.5 µM

Report TGI, nothing else, for this compound: `O=c1[nH]cnc2c1nnn2CCCn1nnc2c(=O)[nH]cnc21`
> 100 µM

Now let's try a different one.
Report TGI, nothing else, for this compound: Fc1cccc(F)c1C1SCC2=Nc3ccccc3CN21 (stereo not drawn)
> 100 µM

----------
Test system: PC-3 prostate
Assay: NCI tumour cell line growth inhibition, 48 h
MEASURED_ATTRIBUTE: TGI

Record excerpt, results attached:
Report TGI, nothing else, for this molecule: N#Cc1c(-c2ccco2)c2c(n(C3OC(CO)C(O)C(O)C3O)c1=S)CCCC2 (stereo unspecified)
> 100 µM

Report TGI, nothing else, for this molecule: `NC1=CN(CCCO)C2=N/C(=C\c3ccco3)C(=O)N12`
> 100 µM

Report TGI, nothing else, for this molecule: `C=C1C(=O)O[C@H]2[C@H]1CC/C(COC(=O)OCCCCCOC(=O)OC/C1=C/CC[C@@]3(C)O[C@H]3[C@H]3OC(=O)C(=C)[C@@H]3CC1)=C\CC[C@@]1(C)O[C@@H]21`
4.54 µM

Report TGI, nothing else, for this molecule: COC(=O)OC[C@H]1O[C@@H](n2cc(C)c(=O)[nH]c2=O)CC1OC(=O)OC (stereo partly specified)
> 100 µM

New cases:
Report TGI, nothing else, for this molecule: `c1cc(-c2cscc2-c2ccsc2)cs1`
> 100 µM

Report TGI, nothing else, for this molecule: `Cc1ccc(S(=O)(=O)N(C)C)cc1[N+](=O)[O-]`
> 100 µM

Report TGI, nothing else, for this molecule: `FC(F)(F)c1cc(Nc2ccc3c(OCCCN4CCOCC4)cccc3n2)ccc1Cl`
> 100 µM

Report TGI, nothing else, for this molecule: `COc1cc(OC)c(-c2cc(=O)c3c(OC)c(OC)c(OC)c(OC)c3o2)cc1OC`
> 100 µM

Report TGI, nothing else, for this molecule: COc1ccc(-c2nc3ncccn3c2-c2ccc(S(C)=O)cc2)cc1 (stereo unspecified)
> 100 µM
